src = patent US20210032365A1

Biological target: T1, human C1s (human, UniProt P09871 16-688)
T1 construct: also called hC1s; serum-derived human C1s (CompTech)
T1 sequence: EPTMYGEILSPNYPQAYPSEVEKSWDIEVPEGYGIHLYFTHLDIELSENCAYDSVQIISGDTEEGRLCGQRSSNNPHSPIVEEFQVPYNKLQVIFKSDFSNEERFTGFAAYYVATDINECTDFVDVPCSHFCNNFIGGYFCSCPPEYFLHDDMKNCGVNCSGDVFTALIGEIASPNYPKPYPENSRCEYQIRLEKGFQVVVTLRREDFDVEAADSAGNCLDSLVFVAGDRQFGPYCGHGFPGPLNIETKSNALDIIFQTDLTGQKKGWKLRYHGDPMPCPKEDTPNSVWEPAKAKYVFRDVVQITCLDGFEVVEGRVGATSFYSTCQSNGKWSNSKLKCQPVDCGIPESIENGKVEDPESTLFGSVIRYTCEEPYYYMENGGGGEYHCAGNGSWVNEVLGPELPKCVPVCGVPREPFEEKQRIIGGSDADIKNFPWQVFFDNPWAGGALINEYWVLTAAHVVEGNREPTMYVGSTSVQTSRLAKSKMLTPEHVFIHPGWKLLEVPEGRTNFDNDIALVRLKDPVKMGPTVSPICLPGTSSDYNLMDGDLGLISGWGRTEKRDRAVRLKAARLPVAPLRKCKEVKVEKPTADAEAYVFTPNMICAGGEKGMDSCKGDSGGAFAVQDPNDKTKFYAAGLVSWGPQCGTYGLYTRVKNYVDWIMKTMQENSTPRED
Experiment: SPR; KD pH 5.8 3 uM Ca / KD pH 7.4 1.2 mM Ca
Known KD 5(-)/7(+) of a selection of binders

Use these answered entries as a reference point.
Binder	KD 5(-)/7(+)
C1_IPN92H0038-SG4GK/IPN93L0031-SK1 (antibody, human IgG4 S228P, kappa, name in Kabat numbering, V domains shown, also called IPN92H0038/IPN93L0031) VH: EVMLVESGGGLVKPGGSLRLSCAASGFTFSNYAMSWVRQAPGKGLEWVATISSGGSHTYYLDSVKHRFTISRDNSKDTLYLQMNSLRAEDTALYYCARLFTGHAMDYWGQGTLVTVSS VL: QIVLTQSPATLSLSPGERATLSCTASSSVSSSYLHWYQQKPGKAPKLWIYSTSNLASGVPSRFSGSGSGTDYTLTISSLQPEDFATYYCHQYHRHHPITFGQGTKLEIKR	0.7
C1_IPN92H0033-SG4GK/IPN93L0023-SK1 (antibody, human IgG4 S228P, kappa, name in Kabat numbering, V domains shown, also called IPN92H0033/IPN93L0023) VH: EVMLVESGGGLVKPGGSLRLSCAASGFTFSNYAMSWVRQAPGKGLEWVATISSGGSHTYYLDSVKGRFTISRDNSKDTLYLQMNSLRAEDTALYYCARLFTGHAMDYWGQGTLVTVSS VL: QIVLTQSPATLSLSPGERATLSCTASSSVSSSYLHWYQQKPGKAPKLWIYSTSNLASGVPSRFSGSGSGTDYTLTISSLQPEDFATYYCHQYYRHPPITFGQGTKLEIKR	3.5
C1_IPN92H0033-SG4GK/IPN93L0028-SK1 (antibody, human IgG4 S228P, kappa, name in Kabat numbering, V domains shown, also called IPN92H0033/IPN93L0028) VH: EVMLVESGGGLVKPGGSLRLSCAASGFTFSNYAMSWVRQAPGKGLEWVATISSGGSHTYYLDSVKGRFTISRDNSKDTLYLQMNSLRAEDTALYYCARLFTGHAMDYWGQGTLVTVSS VL: QIVLTQSPATLSLSPGERATLSCTASSSVSSSYLHWYQQKPGKAPKLWIYSTSNLASGVPSRFSGSGSGTDYTLTISSLQPEDFATYYCHQYHRHPPITFGQGTKLEIKR	1.3

Exam item: Name the reported KD 5(-)/7(+) value associated with the binder C1_IPN92H0038-SG4GK/IPN93L0028-SK1 (antibody, human IgG4 S228P, kappa, name in Kabat numbering, V domains shown, also called IPN92H0038/IPN93L0028) VH: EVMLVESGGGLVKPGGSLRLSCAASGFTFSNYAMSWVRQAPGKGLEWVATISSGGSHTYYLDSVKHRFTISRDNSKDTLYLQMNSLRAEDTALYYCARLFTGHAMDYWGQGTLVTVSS VL: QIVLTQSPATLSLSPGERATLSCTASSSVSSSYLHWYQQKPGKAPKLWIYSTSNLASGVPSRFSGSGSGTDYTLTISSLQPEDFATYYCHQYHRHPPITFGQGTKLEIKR
Marked response: 11.6

Exam item: Follow-up entry: C1_IPN92H0026-SG4GK/IPN93L0024-SK1 (antibody, human IgG4 S228P, kappa, name in Kabat numbering, V domains shown, also called IPN92H0026/IPN93L0024) VH: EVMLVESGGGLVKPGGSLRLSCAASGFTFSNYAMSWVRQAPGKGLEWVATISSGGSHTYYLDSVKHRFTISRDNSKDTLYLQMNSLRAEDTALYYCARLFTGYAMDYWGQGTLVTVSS VL: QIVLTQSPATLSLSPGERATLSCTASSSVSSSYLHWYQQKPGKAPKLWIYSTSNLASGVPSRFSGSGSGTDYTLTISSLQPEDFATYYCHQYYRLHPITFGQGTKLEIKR
Marked response: 13.2
